Origin of the recorded values: paper PMC9090415

# assayed.system: bacteriophage T4 DNA polymerase (Enterobacteria phage T4, UniProt P04415)
# Construct: made in house
# Sequence (P04415 1-898): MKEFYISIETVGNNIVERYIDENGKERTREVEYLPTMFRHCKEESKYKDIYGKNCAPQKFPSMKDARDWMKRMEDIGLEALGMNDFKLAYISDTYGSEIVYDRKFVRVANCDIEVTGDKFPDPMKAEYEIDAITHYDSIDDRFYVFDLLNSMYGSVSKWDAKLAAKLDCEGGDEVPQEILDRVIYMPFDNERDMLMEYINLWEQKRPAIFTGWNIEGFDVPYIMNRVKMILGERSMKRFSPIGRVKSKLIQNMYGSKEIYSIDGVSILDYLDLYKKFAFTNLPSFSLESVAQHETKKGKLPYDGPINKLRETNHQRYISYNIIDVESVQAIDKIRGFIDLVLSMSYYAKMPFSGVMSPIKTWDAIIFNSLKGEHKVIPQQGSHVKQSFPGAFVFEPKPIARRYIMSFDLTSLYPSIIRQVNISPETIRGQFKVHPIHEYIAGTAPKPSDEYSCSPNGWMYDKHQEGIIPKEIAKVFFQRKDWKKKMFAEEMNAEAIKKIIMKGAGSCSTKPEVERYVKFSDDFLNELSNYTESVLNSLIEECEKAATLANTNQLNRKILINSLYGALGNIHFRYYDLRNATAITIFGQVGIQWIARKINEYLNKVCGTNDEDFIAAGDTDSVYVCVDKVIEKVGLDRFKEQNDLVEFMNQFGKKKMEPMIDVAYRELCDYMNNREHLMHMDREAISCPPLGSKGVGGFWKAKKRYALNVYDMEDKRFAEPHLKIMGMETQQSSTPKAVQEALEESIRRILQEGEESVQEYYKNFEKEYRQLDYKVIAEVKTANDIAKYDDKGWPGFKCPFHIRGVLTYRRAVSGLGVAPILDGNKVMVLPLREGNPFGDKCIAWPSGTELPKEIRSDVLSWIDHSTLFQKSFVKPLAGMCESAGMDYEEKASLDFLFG
# assay.info: Counter-screen against bacteriophage T4 DNA polymerase
# Format: biochemical
# condition.description: DRC-2; read at 180'; concentration 2.5
Listing: % inhibition T4 180' 2.5 of selected compounds
Answer with a number only, understood to be in %.

CCCc1ccc(Oc2coc3cc(OC)ccc3c2=O)cc1 [KU0193249]; 1.43
Cn1nc(-c2nc(-c3ccccc3)no2)c2c1CCN(C(=O)Cc1cccs1)C2 [Molecule 58]; -1.52
O=C(CCc1csc(NC(=O)Nc2ccccc2)n1)Nc1nc2ccccc2s1 [KU0177354]; -11
Cc1cc2[nH]c(C(=O)Nc3ccc(F)cc3)c(CN3CCOCC3)c2s1 [Molecule 60]; -1.07
Cc1ccc(N2CCC(NC(=O)Cc3cccs3)C2=O)cc1C (centres unmarked) [Molecule 57, O=C(NC1CCN(C1=O)c1ccc(c(c1)C)C)Cc1cccs1]; 11

# % inhibition T4 180' 2.5 lookup, item Cn1nc(-c2nnc(-c3ccccc3F)o2)c2c1CCN(C(=O)c1ccccc1Cl)C2 [Molecule 34] -4.68

# % inhibition T4 180' 2.5 lookup, item Cc1cccc(-c2noc(C(=O)NNC(=O)C(Cl)(Cl)Cl)n2)c1 [KU0266208] 1.78

# % inhibition T4 180' 2.5 lookup, item CC(C)CC(C(=O)O)N1C(=O)C2C3C=CC(C2C1=O)C1C(=O)N(C(CC(C)C)C(=O)O)C(=O)C31 (centres unmarked) [KU0193449] -1

# % inhibition T4 180' 2.5 lookup, item N#Cc1c(O)nc(N2CCCCC2)nc1-c1ccc2c(c1)OCO2 [KU0083146] 12

# % inhibition T4 180' 2.5 lookup, item Nc1cc(Oc2ccc(O)c(N)c2)ccc1O [KU0034728] -11

# % inhibition T4 180' 2.5 lookup, item COc1ccccc1CC(=O)N1CCc2c(nc3cc(-c4ccccc4Cl)[nH]n3c2=O)C1 [Molecule 49] -9

# % inhibition T4 180' 2.5 lookup, item Cc1ccsc1Cn1c(C)ccc1C [Molecule 70, Cc1ccsc1Cn1c(C)ccc1C] -7

# % inhibition T4 180' 2.5 lookup, item CC(=O)Nc1cc(C(=O)c2cccs2)nn(-c2ccc(Cl)cc2)c1=O [KU0267905] 0.767

# % inhibition T4 180' 2.5 lookup, item CC(=O)OCC1=C(C(=O)[O-])N2C(=O)[C@@H](NC(=O)Cc3cccs3)[C@H]2SC1.[Na+] [Molecule 73] 0.485

# % inhibition T4 180' 2.5 lookup, item COc1ccc(/C=C/c2cc(C(=O)O)c3ccccc3n2)cc1 [Molecule 5, COc1ccc(cc1)/C=C/c1nc2ccccc2c(c1)C(=O)O] -3.34

# % inhibition T4 180' 2.5 lookup, item C#CC(C=CC)OC(=O)c1ccccc1C(=O)O (centres unmarked) [Molecule 61, CC=CC(OC(=O)c1ccccc1C(=O)O)C#C] -5.62

# % inhibition T4 180' 2.5 lookup, item COc1ccc(C2CC(c3ccc(Cl)cc3Cl)Nc3nc(N)nn32)cc1OC (centres unmarked) [Molecule 43] -2.47
